system: HCV replicon; assay: HCV replicon system in Huh7 cells (real-time RT-PCR of replicon RNA); type: cell-based; details: Hepatitis C virus, Huh-7; Huh7 replicon cells; calculated from ΔCt values of dilution series
READOUT LABEL: EC50

The examples below pair each entry with its known result.
O=c1c(Cl)cc2nnn3c2n1[C@@H]1O[C@H](C3)C(O)C1O (some centres unmarked) [71 (X = Cl)] | < 0.7 µM
CNc1nc(=O)n2c3c1nnn3C[C@H]1O[C@@H]2C(O)C1O (some centres unmarked) [72 (R = H, R′ = Me)] | < 1 µM
O=c1ccc2nnn3c2n1[C@H]1CC(O)[C@@H](C3)O1 (some centres unmarked) [83 (Y = H, Z = CH)] | < 6 µM
N#CCn1c(=O)c2nnn3c2n(c1=O)[C@@H]1O[C@H](C3)C(O)C1O (some centres unmarked) [77 (R = CH2CN)] | < 6 µM
OC1C(O)[C@H]2Cn3nnc4ccc(=S)n(c43)[C@@H]1O2 (some centres unmarked) [Compound 70] | 1 µM

// for each compound in input: emit EC50
1. Cl.Nc1nc(=O)n2c3c1ncn3C[C@H]1O[C@@H]2C(O)C1O (some centres unmarked) [Compound 27, HCl salt]
2. O=c1ccc2nnn3c2n1[C@@H]1O[C@H](C3)C(O)C1O (some centres unmarked) [15 (Y = H, Z = CH)]

Reply:
["< 3 µM", "20 µM"]

Kindly give each listed record's EC50.
1. O=c1ncc2nnn3c2n1[C@@H]1O[C@H](C3)C(O)C1O (some centres unmarked) [15 (Y = H, Z = N)]
2. O=c1[nH]c(=O)n2c3c1ncn3C[C@H]1O[C@@H]2C(O)C1O (stereo partly drawn) [Compound 35, 5′,9-Cyclo-3-(β-D-ribofuranosyl)xanthine]
3. C/N=c1/[nH]c(=O)n2c3c1nnn3C[C@H]1O[C@@H]2C(O)C1O (some centres unmarked) [75 (R = Me, R′ = H)]
4. Cn1c(=O)c2nnn3c2n(c1=O)[C@@H]1O[C@H](C3)C(O)C1O (some centres unmarked) [77 (R = CH3)]

Reply:
1. < 10 µM
2. 4 µM
3. < 6 µM
4. 0.4 µM

----------
test system: HCV replicon; assay: HCV replicon system in Huh7 cells (real-time RT-PCR of replicon RNA); assay type: cell-based; settings: Hepatitis C virus, Huh-7; Huh7 replicon cells; calculated from ΔCt values of dilution series
Give measured EC50 for each item. Keep answers brief.

O=c1[nH]c(=S)c2nnn3c2n1[C@@H]1O[C@H](C3)C(O)C1O (stereo partly drawn) | < 6 µM
O=c1c(Br)cc2nnn3c2n1[C@@H]1O[C@H](C3)C(O)C1O (stereo partly drawn) | < 1 µM

Note: attention shifts to another entry.
Task item: I have this molecule here, CO/N=c1/[nH]c(=O)n2c3c1nnn3C[C@H]1O[C@@H]2C(O)C1O (stereo partly drawn) [75 (R = OMe, R′ = H)] , and I need its recorded EC50.
Reply: < 5 µM
